Biological target: T1, PUF4 RNA-binding domain (Saccharomyces cerevisiae, UniProt P25339 537-888)
T1 sequence: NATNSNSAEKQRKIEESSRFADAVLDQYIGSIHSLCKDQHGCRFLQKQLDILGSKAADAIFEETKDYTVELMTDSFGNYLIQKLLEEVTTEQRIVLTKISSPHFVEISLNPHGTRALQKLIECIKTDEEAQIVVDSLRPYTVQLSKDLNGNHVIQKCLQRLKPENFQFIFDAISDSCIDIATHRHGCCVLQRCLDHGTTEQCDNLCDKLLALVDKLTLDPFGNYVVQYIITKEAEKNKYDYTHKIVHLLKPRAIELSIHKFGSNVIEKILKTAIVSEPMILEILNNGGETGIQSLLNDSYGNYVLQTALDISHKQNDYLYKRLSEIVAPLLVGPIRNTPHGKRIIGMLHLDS
Experiment: Mg; RNA-MaP; 20 mM Na-HEPES pH 7.4, 30 mM KOAc, 0.75 mM MgCl2, 0.1% Tween-20, 5% glycerol, 0.1 mg/mL BSA, 2 mM DTT; 25 C; 0.0125-409.6 nM protein
Conditions: tags: N-His6-TEV cleaved; C-SNAP kept, Cy3B-labelled; label: tethered on chip by stalled RNA polymerase
quantity measured: Kd (nM)
Report as a plain number; the unit nM is understood.

Using known records, supply Kd for Ib_S2_P5E.1_K5.1_C5.1_H5.1_A5.1_[A7T]_F5.1_[T8C]_T5.1 (ssRNA) RNA: UUUGAUUAAUAUGAUAUCGUUCUUUCUUGUAUUUCUAUUCUUUCUCGAUAUCAUAUUAAUCUUU 3.48

Using known records, supply Kd for Id_iii_S2_P3E.5_K3.1_C3.3_H3.1_A3.1_F3.1_T3.2_[T9A] (ssRNA) RNA: UUUGAUUAAUAUGAUAUCGUUCUUUCUUCUUGUAUAUAAAUUCUUUCUCGAUAUCAUAUUAAUCUUU 3.53

Using known records, supply Kd for Id_ii_S2_P5E.2_K5.1_C5.2_[C-2A]_[T-1C]_H5.1_A5.1_F5.1_T5.2_[T11A]_[A12T] (ssRNA) RNA: UUUGAUUAAUAUGAUAUCGUUCUUUCUACUGUAUUAUUAAUUUCUUUCUCGAUAUCAUAUUAAUCUUU 3.61

Using known records, supply Kd for Ib_S2_P5E.1_K5.1_C5.1_H5.1_A5.1_[T6C]_F5.1_[A10T]_T5.1 (ssRNA) RNA: UUUGAUUAAUAUGAUAUCGUUCUUUCUUGUAUCAUUUUUCUUUCUCGAUAUCAUAUUAAUCUUU 4.73
